System: Botrytis cinerea (B. cinerea)
procedure details: In vitro fungicidal activity, mycelial (hyphae) growth inhibition on PDA
Format: cell-based
condition details: read-out: EC50 (μmol/L)
endpoint name: pEC50
Give bare numbers, as −log10 of the molar value.

{"compound": "CN(C/C=C/C#CC(C)(C)C)Cc1cccc2ccccc12.O=C(O)/C=C/C(=O)O", "recorded result": 6.44}

Read the next record carefully.
State the recorded pEC50 for this entry: CN(C/C=C/C#CC(C)(C)C)Cc1cccc2ccccc12.O=C(O)c1ccccc1O
6.49

###

Test system: Rhizoctonia solani (R. solani)
procedure details: microbe, parasite or virus in culture
Type: cell-based
condition details: 50 mg/L
endpoint name: Inhibition Rate at 50 mg/L (%) R. s
# do not omit the unit; it follows the number

{"compound": "CN(C/C=C/C#CC(C)(C)C)Cc1cccc2ccccc12.O=C(O)C1C(C(=O)O)[C@@]2(Cl)C(Cl)=C(Cl)[C@]1(Cl)C2(Cl)Cl [TIS 2]", "recorded result": "80.75 ± 0.72%"}

I would be grateful if you could provide Inhibition Rate at 50 mg/L (%) R. s for each of the following entries.
1. CN(C/C=C/C#CC(C)(C)C)Cc1cccc2ccccc12.O=C(O)c1ccco1 [TIS 5]
2. CN(C/C=C/C#CC(C)(C)C)Cc1cccc2ccccc12.O=C(O)/C=C\C(=O)O [TIS 3]

1: 82.02 ± 0.91%; 2: 83.4 ± 0.35%

I would be grateful if you could provide Inhibition Rate at 50 mg/L (%) R. s for each of the following entries.
1. CN(C/C=C/C#CC(C)(C)C)Cc1cccc2ccccc12.O=C(O)/C=C/C(=O)O [TIS 4]
2. CN(C/C=C/C#CC(C)(C)C)Cc1cccc2ccccc12.O=C(O)c1ccccc1O [TIS 1]

1: 85.82 ± 1.51%; 2: 84.79 ± 1.25%

###

procedure details: Solubility classification in representative solvents (Vogel protocol)
Format: physicochemical
condition details: chloroform, organic solvent or mixture, thermodynamic from solid; 25 °C; test amount 0.1 g; Snyder polarity index 4.1; read-out: Solubility in Chloroform
endpoint name: solubility

Some solved cases for reference:
{"compound": "CN(C/C=C/C#CC(C)(C)C)Cc1cccc2ccccc12.O=C(O)/C=C\\C(=O)O", "solubility": "> 100 mg/mL"}
{"compound": "CN(C/C=C/C#CC(C)(C)C)Cc1cccc2ccccc12.O=C(O)/C=C/C(=O)O", "solubility": "< 33.3 mg/mL"}
{"compound": "CN(C/C=C/C#CC(C)(C)C)Cc1cccc2ccccc12.O=C(O)c1ccccc1O", "solubility": "> 100 mg/mL"}

Read the next record carefully.
State the recorded solubility for this entry: CN(C/C=C/C#CC(C)(C)C)Cc1cccc2ccccc12
> 100 mg/mL

###

procedure details: Solubility of saturated solutions by HPLC at 25 °C
Assay type: physicochemical
condition details: toluene, organic solvent or mixture, thermodynamic from solid, Table S1, read-out: Solubility, Toluene
Excerpt: The filtrate was then passed through a 0.22 μm nylon membrane filter and subjected to HPLC analysis. Based on Wang’s report about the chromatographic parameters, modifications to the mobile phase ratio were made. The replicability of the results was ensured by performing each measurement in triplicate.
endpoint name: solubility at 15 min (µM)
One number for each entry, in µM.

{"compound": "CN(C/C=C/C#CC(C)(C)C)Cc1cccc2ccccc12.O=C(O)/C=C\\C(=O)O [TIS 3]", "measurement unit": "µM", "solubility at 15 min": 42.1}

Read the next record carefully.
State the recorded solubility at 15 min for this entry: CN(C/C=C/C#CC(C)(C)C)Cc1cccc2ccccc12.O=C(O)/C=C/C(=O)O [TIS 4]
0.261

###

procedure details: Solubility of saturated solutions by HPLC at 25 °C
Type: physicochemical
condition details: water, thermodynamic from solid, Table S1, read-out: Solubility, Water
Kindly state solubility at 15 min for each of the entries shown.
One number for each entry, in µM.

{"compound": "CN(C/C=C/C#CC(C)(C)C)Cc1cccc2ccccc12.O=C(O)/C=C/C(=O)O", "endpoint name": "solubility at 15 min", "recorded result": 1920}

I would be grateful if you could provide solubility at 15 min for each of the following entries.
1. CN(C/C=C/C#CC(C)(C)C)Cc1cccc2ccccc12.O=C(O)c1ccccc1O
2. CN(C/C=C/C#CC(C)(C)C)Cc1cccc2ccccc12.O=C(O)/C=C\C(=O)O

1: 284; 2: 616

Cited source: paper PMC10303384
